System: HOP-18 NSCLC
Assay: NCI tumour cell line growth inhibition, 48 h
# TGI annotations

Compound	TGI
O=C(O)C(CS)NCc1c2ccccc2[n+]([O-])c2ccccc12 (stereo unspecified)	> 100 µM
O=C1C=C(N2CCCC2)C=C(N2CCCC2)C1	> 100 µM
CC1=C(C(=O)Nc2ccccc2)C(c2ccc3c(c2)OCO3)C(C(=O)Nc2ccccc2)=C(C)N1	> 100 µM
Cc1c(NC(=O)C(=O)N=NC(=O)c2ccncc2)c(O)c2ccccc2c1O	22.3 µM
CCOC(=O)/C(C1=N[C@H](C(=O)OCC)CS1)=C(\C)O	> 100 µM
O=C(Cc1ccccc1)NN1C(=O)C(Cl)C1c1cccc(O)c1 (stereo unspecified)	36.5 µM
CCOP(=O)(OCC)C1C(=O)O[C@H]2CCCC[C@@H]12 (stereo partly specified)	> 100 µM
C=C(c1ccccc1N)[C@@]1(O)C[C@H](/C(=C\C)CO)C[C@@H]1NCc1ccccc1	52.4 µM
CC(=O)Oc1c(C)n(CCCl)ccc1=O	> 100 µM
COc1ccc(-c2oc3cc(O)c(OC)c(O)c3c(=O)c2OC2OC(CO)C(O)C(O)C2O)cc1 (stereo unspecified)	> 100 µM
O=S(=O)(O)CS(=O)(=O)OCCCl	> 100 µM

* * *

System: M19-MEL melanoma
Assay: NCI tumour cell line growth inhibition, 48 h
# TGI annotations

Molecule	Study Target	TGI
CCCCCCC(=O)C/C(CCC(=O)N(Cc1ccccc1)Cc1ccccc1)=N\Nc1ccc([N+](=O)[O-])cc1[N+](=O)[O-]	M19-MEL melanoma	> 100 µM
Cc1c(NC(=O)C(=O)N=NC(=O)c2ccncc2)c(O)c2ccccc2c1O	M19-MEL melanoma	3.23 µM
CCOC(=O)Cc1c(Cc2[nH]c(C(=O)OCc3ccccc3)c(CC(=O)OCC)c2CC(=O)OCC)[nH]c(C(=O)OCc2ccccc2)c1CC(=O)OCC	M19-MEL melanoma	> 100 µM
CCOC(=O)c1cccc(=O)c(C(=O)OCC)c1	M19-MEL melanoma	> 100 µM
O=C1CC2CC=C[C@H]3c4cc5c(cc4C(=O)N1C23)OCO5 (stereo partly drawn)	M19-MEL melanoma	> 50 µM
O=C1C2=C(c3ccccc31)C(c1cccc(Cl)c1)NC(=S)N2 (stereo not drawn)	M19-MEL melanoma	> 100 µM
CNC(=O)OCc1nc(SC(C)C)n(C)c1COC(=O)NC	M19-MEL melanoma	> 100 µM
CCOC(=O)/C(C1=N[C@H](C(=O)OCC)CS1)=C(\C)O	M19-MEL melanoma	> 100 µM
Cc1cc(Br)cc(C)c1NC(=O)C(=O)CC(=O)c1sc(-n2nc(-c3ccccc3)cc2-c2ccccc2)nc1C	M19-MEL melanoma	> 100 µM
CCOC(=O)CCC(NC(=O)c1ccc(N=Cc2nc3cc(C(F)(F)F)ccc3nc2-c2ccccc2)cc1)C(=O)OCC (stereo not drawn)	M19-MEL melanoma	> 100 µM
CC(=O)Oc1c(C)n(CCCl)ccc1=O	M19-MEL melanoma	> 100 µM
N#Cc1ccccc1NC(=O)C(=O)C(C(=O)c1ccccc1-c1ccccc1)C1OC(=O)c2ccccc21 (stereo not drawn)	M19-MEL melanoma	35.3 µM
FC(F)(F)P1C2C=CC(CC2)C1(F)F (stereo not drawn)	M19-MEL melanoma	> 100 µM

* * *

Tested on: DU-145 prostate
Assay: NCI tumour cell line growth inhibition, 48 h
Assay Metric: GI50

Compound	Endpoint Value
COc1ccc(/C=C2\CN(C(=O)CCN3CCC(=NO)CC3)C/C(=C\c3ccc(OC)cc3)C2=O)cc1	1.9 µM
COC(=O)c1cnc(=O)n(C2CC(O)C(CO)O2)c1 (stereo unspecified)	> 100 µM
Cc1ccc(-c2c(C#N)c(N)nc(N3CCOCC3)c2C#N)o1	43.5 µM
O=C(CCCc1c[nH]c2ccccc12)NC1CC(=O)c2c(Br)sc(Br)c21 (stereo unspecified)	23.5 µM
COc1cc2cc(Oc3ccc(NC(=O)Nc4cccc(C(F)(F)F)c4)cc3)c(C)nc2cc1OCCN1CCCCC1	1.68 µM
COc1cc2c3c(n(C)c(=O)c2cc1OC)-c1cc2c(cc1/C3=C\CCCCN)OCO2	10.5 µM
